Molecular target: C-8 sterol isomerase ERG2 (Saccharomyces cerevisiae S288c)
Assay: Inhibition of yeast sterol-delta8/7-isomerase assessed as accumulation of cholesta-5,7-dien-3beta-ol at 1 uM
Active and inactive are the calls of the source. The calls are words filed in the database; no cut-off is given here.
Pick one and only one: label 1 for active, label 0 for inactive

Examples with answers:
| MOLECULE | ASSIGNED LABEL |
| --- | --- |
| c1ccc(C[C@@H]2CN(Cc3ccccc3)CCCN2Cc2ccccc2)cc1 | label 1 |
| c1ccc(C[C@@H]2CNCCCN2Cc2ccccc2)cc1 | label 1 |
| CC(C)[C@H]1CN(CC2CCCCC2)CCCN1Cc1ccccc1 | label 1 |
| C[C@@H]1CN(CC2CCCCC2)CCCN1Cc1ccccc1 | label 1 |
| c1ccc(CCN2CCCN(Cc3ccccc3)[C@@H](Cc3ccccc3)C2)cc1 | label 1 |
| CN1CCCN(Cc2ccccc2)[C@@H](Cc2ccccc2)C1 | label 1 |
| COc1ccc(CN2CCCN(Cc3ccccc3)[C@H](Cc3ccccc3)C2)cc1 | label 1 |
| CC(C)=CCN1CCCN(Cc2ccccc2)[C@H](Cc2ccccc2)C1 | label 1 |

Check the results log: what was the call for c1ccc(C[C@H]2CNCCCN2Cc2ccccc2)cc1 ?
label 1
